target: rat NaPi-2b (Rattus norvegicus, UniProt Q9JJ09); assay: Sodium-dependent phosphate uptake of Xenopus oocytes which expressed NaPi-2b (32P); conditions: Xenopus oocytes expressing rat NaPi-2b, 32P radioactive phosphorus; read-out: IC50 (phosphate uptake inhibitory activity)
Sequence (Q9JJ09 whole entry): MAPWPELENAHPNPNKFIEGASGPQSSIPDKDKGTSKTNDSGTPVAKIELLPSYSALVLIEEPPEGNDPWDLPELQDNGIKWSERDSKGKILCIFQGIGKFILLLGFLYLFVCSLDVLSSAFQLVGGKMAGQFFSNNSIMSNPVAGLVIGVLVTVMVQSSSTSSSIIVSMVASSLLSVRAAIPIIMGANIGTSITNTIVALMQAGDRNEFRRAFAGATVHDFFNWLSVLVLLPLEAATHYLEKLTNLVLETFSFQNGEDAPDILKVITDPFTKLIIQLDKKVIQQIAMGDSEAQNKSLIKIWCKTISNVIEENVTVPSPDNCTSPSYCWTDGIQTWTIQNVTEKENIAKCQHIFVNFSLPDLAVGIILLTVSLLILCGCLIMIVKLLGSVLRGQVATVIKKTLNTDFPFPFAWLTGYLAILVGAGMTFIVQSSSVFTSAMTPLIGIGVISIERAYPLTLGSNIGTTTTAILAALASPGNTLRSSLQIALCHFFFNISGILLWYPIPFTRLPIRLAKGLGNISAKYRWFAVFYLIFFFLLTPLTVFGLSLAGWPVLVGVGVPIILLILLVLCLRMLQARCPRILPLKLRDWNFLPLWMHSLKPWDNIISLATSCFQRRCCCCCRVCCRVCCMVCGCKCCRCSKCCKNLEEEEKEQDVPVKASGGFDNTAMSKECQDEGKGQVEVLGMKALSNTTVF
Quantity measured: IC50 (µM)

COc1cccc(/C=N/NC(=O)c2cc(Br)ccc2NC(=O)c2ccc(CN3CCN(CCO)CC3)cc2)c1 [Compound 323]; 4.69
COc1cccc(/C=N/NC(=O)c2cc(Cl)ccc2NC(=O)c2cccc(CSc3nnnn3CCN(C)C)c2)c1 [Compound 468]; 22.4
Cc1cccc(/C=N/NC(=O)c2cc(Cl)ccc2NC(=O)c2ccncc2)c1 [Compound 191]; 12.1

a. O=c1c2cc(Br)ccc2nc(-c2cccc(CSCCO)c2)n1/N=C/c1ccc(F)cc1 [Compound 695]
b. CCN(CC)CCN(C)Cc1cccc(C(=O)Nc2ccc(N3CCCC3)cc2C(=O)N/N=C/c2ccc(OC)cc2)c1 [Compound 918]
c. Cc1ccc(/C=N/NC(=O)c2c(NC(=O)c3cccc(CN4CCC(CO)CC4)c3)sc3c2CCC3)cc1C [Compound 816]
d. CCc1ccc(C(=O)Nc2ccc(Br)cc2C(=O)N/N=C/c2ccc(C)c(C)c2)cc1 [Compound 182]
e. Cc1ccc(/C=N/NC(=O)c2c(C)csc2NC(=O)c2cccc(CSCCCO)c2)cc1 [Compound 558]
Could you please sort these 5 entries by IC50 from high to low? Present the labels in the sequence the task asks for.
c, d, a, b, e
(c: 14.8 µM, d: 10.2 µM, a: 6.76 µM, b: 1.55 µM, e: 1.07 µM)

====

target: rat NaPi-2b (Rattus norvegicus, UniProt Q9JJ09); test: Sodium-dependent phosphate uptake of Xenopus oocytes which expressed NaPi-2b (32P); settings: Xenopus oocytes expressing rat NaPi-2b, 32P radioactive phosphorus; read-out: IC50 (phosphate uptake inhibitory activity)
Structures can show the parent of a compound that is named as a salt.
Quantity measured: IC50 (nM)

Cc1ccc(/C=N/NC(=O)c2cc(Br)ccc2NC(=O)c2ccc(CSCCCO)cc2)cc1; 1040
COc1ccc(/C=N/NC(=O)c2cc(Cl)ccc2NC(=O)c2cccc(CSc3nnnn3CCN(C)C)c2)cc1; 33200
COc1ccc(/C=N/NC(=O)c2cc(F)ccc2NC(=O)c2cccc(CN(CC(C)O)CC(C)O)c2)cc1 (stereo not shown) [Compound 854, hydrochloride]; 1330

1. Cc1ccc(/C=N/NC(=O)c2cc(Br)ccc2NC(=O)c2ccc(C)cc2)cc1
2. COc1ccc(C(=O)Nc2ccccc2C(=O)N/N=C/c2ccc(O)c(O)c2)cc1OC
Consider entries 1 and 2 . Which has the numerically lower IC50? Select an item and report its label.
1

====

target: rat NaPi-2b (Rattus norvegicus, UniProt Q9JJ09); construct: expressed in transfected cells; host or cells: Xenopus oocytes injected with cRNA; experiment: Sodium-dependent phosphate uptake of Xenopus oocytes which expressed NaPi-2b (32P); type: cell-based; conditions: phosphate uptake, oocytes expressing rat NaPi-2b; 300 μM, determined from inhibition curve
Quantity measured: inhibition at 300 µM (%)

Known inhibition at 300 µM results, listed for orientation:
Cc1ccc(/C=N/NC(=O)c2cc(Cl)ccc2NC(=O)c2cccc(CN(C)CCCCCCN(C)Cc3cccc(C(=O)Nc4ccc(Cl)cc4C(=O)N/N=C/c4ccc(C)cc4)c3)c2)cc1; 47.8
CCOCCN(CCOCC)Cc1ccc(C(=O)Nc2ccc(Br)cc2C(=O)N/N=C/c2ccc(C)cc2)cc1; 64.9
CCN(CC)CCNCc1cccc(C(=O)Nc2c(C)csc2C(=O)N/N=C/c2ccc(C)cc2)c1; 82

a. COc1ccc(C(=O)Nc2ccccc2C(=O)N/N=C/c2ccc([N+](=O)[O-])cc2)cc1OC
b. O=C(Nc1ccc(Br)cc1C(=O)N/N=C/c1ccc(F)cc1)c1ccc(CN2CCN(c3ccccn3)CC2)cc1
c. Cc1csc(NC(=O)c2cccc(CSCCS(=O)(=O)O)c2)c1C(=O)N/N=C/c1ccc(F)cc1
Task field, ranking: reported inhibition at 300 µM, descending order. Form field (ranking): labels in requested order.
c, b, a

====

target: rat NaPi-2b (Rattus norvegicus, UniProt Q9JJ09); assay: Sodium-dependent phosphate uptake of Xenopus oocytes which expressed NaPi-2b (32P); conditions: Xenopus oocytes expressing rat NaPi-2b, 32P radioactive phosphorus; read-out: IC50 (phosphate uptake inhibitory activity)
Counter-ions that a name gives are not always drawn.
Quantity measured: IC50 (µM)

Use these answered entries as a reference point.
CCN(CC)CCN(C)Cc1cccc(C(=O)Nc2ccc(Cl)cc2C(=O)N/N=C/c2ccc(O)cc2)c1 [Compound 388]; 19.7
COc1ccc(C(=O)Nc2ccccc2C(=O)N/N=C/c2cc(C)ccc2C)cc1OC [Compound 43]; 20.7
COc1cccc(/C=N/NC(=O)c2cc(Br)ccc2NC(=O)c2ccc(CN3CCC(O)CC3)cc2)c1 [Compound 331]; 15.8
Cc1ccc(/C=N/NC(=O)c2cc(Br)ccc2NC(=O)c2ccc(CNCCN3CCOCC3)cc2)cc1 [Compound 282]; 6.71
CCN(CC)CCN(C)Cc1cccc(C(=O)Nc2sc3c(c2C(=O)N/N=C/c2ccc(OC)cc2)CCCC3)c1 [Compound 614]; 3.29
COc1cccc(/C=N/NC(=O)c2ccccc2NC(=O)c2ccc(OC)c(OC)c2)c1 [Compound 5]; 3.31

a. CCN(CC)CCNCc1ccc(C(=O)Nc2ccc(Br)cc2C(=O)N/N=C/c2ccc(C)cc2)cc1 [Compound 293]
b. O=C(Nc1ccc(Br)cc1C(=O)N/N=C/c1cccc(F)c1)c1cccnc1 [Compound 172]
c. CCN(CC)CCN(CCN(CC)CC)Cc1cccc(C(=O)Nc2sc3c(c2C(=O)N/N=C/c2ccc(OC)cc2)CCCC3)c1 [Compound 856, hydrochloride]
d. CCN(CC)CCN(C)Cc1ccc(C(=O)Nc2ccc(Br)cc2C(=O)N/N=C/c2ccc(C)cc2)cc1 [Compound 285]
# rank by IC50, ascending (min first) API: response body holds the labels in the requested order.
d, c, b, a
(d: 0.9 µM, c: 1.77 µM, b: 2.74 µM, a: 5.59 µM)

====

biological target: rat NaPi-2b (Rattus norvegicus, UniProt Q9JJ09); assay: Sodium-dependent phosphate uptake of Xenopus oocytes which expressed NaPi-2b (32P); conditions: Xenopus oocytes expressing rat NaPi-2b, 32P radioactive phosphorus; read-out: IC50 (phosphate uptake inhibitory activity)
pIC50: −log10 of the molar value.
Quantity measured: pIC50

O=C(Nc1ccc(N2CCC(O)CC2)cc1C(=O)N/N=C/c1ccc(Cl)c(C(F)(F)F)c1)c1cccc(CSCCO)c1; 5.17
O=C(Nc1ccccc1C(=O)N/N=C/c1ccccc1)c1ccccc1F; 5.44
Cc1ccc(/C=N/NC(=O)c2cc(Br)ccc2NC(=O)c2cccs2)cc1; 6.03
COc1ccc(C(=O)Nc2ccc(Br)cc2C(=O)N/N=C/c2ccc(C)cc2)cc1OC; 6.05
O=C(Nc1cscc1C(=O)N/N=C/c1cccc(F)c1)c1cccc(CN2CCN(CCO)CC2)c1; 4.86
Cc1ccc(/C=N/NC(=O)c2cc(Cl)ccc2NC(=O)c2cccc(CN(C)CCCN(C)Cc3cccc(C(=O)Nc4ccc(Cl)cc4C(=O)N/N=C/c4ccc(C)c(C)c4)c3)c2)cc1C; 4.27

A. O=C(Nc1ccc(Cl)cc1C(=O)N/N=C/c1cccc(F)c1)c1cccc(CSCC(O)CO)c1 (stereo not drawn)
B. C/C(=N\NC(=O)c1cc(Br)ccc1NC(=O)c1cccc(CN(CC(C)O)CC(C)O)c1)c1cccc(F)c1 (stereo not drawn)
Hi there! Just curious which has the higher pIC50 between A and B . Kindly state the label of the option you pick.
A
(A: 6.40, B: 5.58)

a. COc1ccc(C(=O)Nc2ccc(Cl)cc2C(=O)N/N=C/c2ccc(O)cc2)cc1OC
b. COc1ccc(NC(=O)c2ccc(OC)c(OC)c2)c(C(=O)N/N=C/c2ccc(C)cc2)c1
Out of a and b , name the one with the higher pIC50. Answer with the label corresponding to your selection.
b
(b: 5.30, a: 5.02)

1. Cn1cccc1/C=N/NC(=O)c1cc(Cl)ccc1NC(=O)c1cccnc1
2. COc1ccc(C(=O)Nc2ccc(Br)cc2C(=O)N/N=C/c2ccc(Cl)cc2)cc1OC
# argmax over pIC50 for candidates 1 and 2 # respond with the chosen item's label
2

====

Target: human NaPi-2a (Homo sapiens, UniProt Q06495)
Sequence (Q06495 1-639): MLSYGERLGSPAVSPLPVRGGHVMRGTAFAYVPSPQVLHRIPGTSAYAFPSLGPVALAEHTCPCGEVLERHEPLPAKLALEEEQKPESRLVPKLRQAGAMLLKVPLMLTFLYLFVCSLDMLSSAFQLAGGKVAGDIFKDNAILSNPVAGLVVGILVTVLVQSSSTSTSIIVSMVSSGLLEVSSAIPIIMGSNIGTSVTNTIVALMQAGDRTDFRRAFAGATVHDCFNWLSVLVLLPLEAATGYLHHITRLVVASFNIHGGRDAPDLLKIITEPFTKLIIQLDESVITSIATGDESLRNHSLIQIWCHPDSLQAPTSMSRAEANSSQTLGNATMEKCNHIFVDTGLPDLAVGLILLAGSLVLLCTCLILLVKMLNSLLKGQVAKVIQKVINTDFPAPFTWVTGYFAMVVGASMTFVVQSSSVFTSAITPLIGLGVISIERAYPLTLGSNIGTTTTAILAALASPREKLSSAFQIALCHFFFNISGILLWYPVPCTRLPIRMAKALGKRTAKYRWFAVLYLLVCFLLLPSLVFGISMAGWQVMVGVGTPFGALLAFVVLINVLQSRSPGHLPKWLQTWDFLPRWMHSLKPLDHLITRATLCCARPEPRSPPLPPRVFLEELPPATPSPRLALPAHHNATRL
Experiment: Sodium-dependent phosphate uptake of Xenopus oocytes which expressed NaPi-2a (32P)
Details: phosphate uptake, Xenopus oocytes expressing human NaPi-2a; five concentration levels
pIC50: −log10 of the molar value.
Quantity measured: pIC50

Below: 2 compounds and their reported pIC50.
CCN(CC)CCN(C)Cc1cccc(C(=O)Nc2ccc(OCCOC)cc2C(=O)N/N=C/c2ccc(Cl)c(C(F)(F)F)c2)c1; 5.80
O=C(Nc1sc2c(c1C(=O)N/N=C/c1ccc(Cl)c(C(F)(F)F)c1)CCCC2)c1cccc(CN2CCC(O)CC2)c1; 6.02

A. Cc1ccc(/C=N/NC(=O)c2cc(N3CCCCC3)ccc2NC(=O)c2cccc(CSCCO)c2)cc1C
B. CCN(CC)CCN(CCN(CC)CC)Cc1cccc(C(=O)Nc2scc(C)c2C(=O)N/N=C/c2cccc(F)c2)c1
C. O=C(Nc1ccc(N2CCCCC2)cc1C(=O)N/N=C/c1ccc(Cl)c(C(F)(F)F)c1)c1cccc(CSCCO)c1
D. Cc1ccc(/C=N/NC(=O)c2cc(N3CCCCC3)ccc2NC(=O)c2cccc(CSCCO)c2)cc1
List by increasing pIC50. Answer with the labels in sequence, matching the requested order.
C, B, D, A
